# run-description: yeast display, Sf9 membrane polyspecificity reagent, FACS + sequencing; frameworks hold sequencing errors

- query-sequence: "QVQLVESGGGLVQAGGRLRLSCAAYGRIFDYYAMGWYRPAPGKEREFVAGITSTGGSTYYADSVKGRFTISRDNAMNTVYFQMNSLKPEDTPVYYCNVVKRLRHGYDYWGQGNQVTVSS"
  polyreactivity (PSR sort gate): "high polyreactivity"
- query-sequence: "QVQLVESGGGLVQAGGSLRLSCAASGRIFYVYAMGWYRQAPGKERELVAAISSDDGSTYYADSVKGRFTISRDNAKNTVYLQMNSLKPEVTAVYYCAKANKRGRYNYWGQGTQVTVSS"
  polyreactivity (PSR sort gate): "high polyreactivity"
- query-sequence: "QVQLVESGGGLVQAGGSLRLSCAASGRIFPVNALGWYRQAPGKEREFVAAISYSGVSTRYADSVKGRFTISRDKAKNTVYLQMNSLKPEDTAVYYCAARMSVREDYWGQGTQVNVSS"
  polyreactivity (PSR sort gate): "high polyreactivity"
- query-sequence: "QVQLVESGGGLVQAGGSLRLSCAASGSTFRGYAMGWYRQAPGKERELVAAISWSAGSTYYADSVKGRFTISRDNAKNTVYLQMNRLKPEDTAVYYCAKASVALRYFSYSLGRDYWGQGTQVTVSS"
  polyreactivity (PSR sort gate): "low polyreactivity"
- query-sequence: "QVQLVESGGGLVQAGGSLRLSCAASGSIFSSYAMGWYRQAPGKERELVAAITSGGSTYYADSVKGRFTISRDNAKNTVYLQLFSLKPEDTAVYYCAARQVRTSKLHMGYWGQGTQVTVSS"
  polyreactivity (PSR sort gate): "low polyreactivity"
- query-sequence: "QVQLVESGAGLVQAGGSLRVSCAASGSTFDSYAMGLYRQAPGKERELVAAITNGGSTYYADSVKGRFTISRDHAKNTVYLQMNRLKPEDTAVYDCATEDYLLDYLYDYWGPGTQVTVSS"
  polyreactivity (PSR sort gate): "low polyreactivity"
- query-sequence: "QVQLVESGGGLVQAGGSLRLSCAASGSIFTPNVMGWYRQAPGKERELVAAISQSGGSTFYADSVKGRFTISRDNAKNTVYLQMNSLKPEDTAVYYCAADDGYTYYYWGQGTQVTVSS"
  polyreactivity (PSR sort gate): "low polyreactivity"
- query-sequence: "QVQLVESGGGLVQAGGSLRLSCAASGSTFDYYDMGWYRQAPGKERELVAAISYSGTSTYYADSVKGRFTISRDNAKNTVYLQMNSLKPEDTAVYYCAKVFPDWYWYDYWGQGTQVTVSS"
  polyreactivity (PSR sort gate): "low polyreactivity"
- query-sequence: "QVQLVESGGGLVQAGGSLRLSCAASARIFKLNAMGGYRQAPVKERELVAAINSGTRTYYADSVKGRFSISRDNAKNTVYLQMKSLKPEDTAVYYGAAEGVWWYSRYDYWGQGTQVTVSS"
  polyreactivity (PSR sort gate): "high polyreactivity"
- query-sequence: "QVQLVESGGGLVQAGGSLRLSCAASGSTFTLNTMGWYRQAPGKERELVAGIRSGGSTYYADSVKGRFTISRDNAKNTVYLQMHSLKPEDTAVYYCAADRRWFAYWFDYWGQGTQVTVSS"
  polyreactivity (PSR sort gate): "low polyreactivity"
- query-sequence: "QVQLVESGGGLVQAGGSLRLSCAASGSIFQSYTMGGYRQAPGKERELVAAINSGGRTNYADSVKGRFTITRDNAKYTVYLQMNSLKPEDTAVYYCAKRLSTRASFGEEDSWGQGTQVTVSS"
  polyreactivity (PSR sort gate): "low polyreactivity"

---

# run-description: yeast display, Sf9 membrane polyspecificity reagent, FACS + sequencing; frameworks hold sequencing errors
property-name: polyreactivity (PSR sort gate)

- query-sequence: "QVQHVESVGGLVQAGGSLRLSCASSASIFRPNAMGWYRQAPGKDRELVAAITWSGDSTYYADSVKGRFTISRDNAKNTVYLQMNSLKPEDTAVYYCAADFTYQGSSPNYYWGQGTQVTVSS"
  observed: "low polyreactivity"
- query-sequence: "QVQLRESGGGLVQAGGSLRLSCAASGRILYSYAMGWYRQAPGKERELVAAISWRGGPTYYADSVKGRFTISRDYAKNSVYLPMNSLKPEDTAVYYCAAEFYDLPWLYDYWGQGTQVTVSS"
  observed: "low polyreactivity"
- query-sequence: "QVQLVESGGGLVQAGGSLRLSCAASGRIFKFNAMGWYRQAPGKEMELVAATWSGGRTYYSDSVKGRFTISRDNAKYTVYLQMNCLKPEDTAVYYCNAADSSWYVLYGSYYRSGLDYWGQGTQVTVSS"
  observed: "low polyreactivity"
- query-sequence: "QVQLVVSGPGLFQAGGSLRISCAPSGFIFYNYAMGWYRQAPGKERELVAAISRSGGSTYYADSVKGRFTISRDNAKNTVYLQMNSLKPEDTAVYYCKVGYGRGSTIGGYDYWGQGTQVTVSS"
  observed: "high polyreactivity"
- query-sequence: "QVQLVESGGVLDQGGGSLRLSCASSGITYRRYAMGWYRQAPGKERELVAANTYGGGSTYYADSVKGRFTISRDNAKNTVYLQMNSLKPADTAVFYCYARYSGGFGGGSKPDYYWGQGTQVTVAS"
  observed: "high polyreactivity"

---

# run-description: yeast display, Sf9 membrane polyspecificity reagent, FACS + sequencing; frameworks hold sequencing errors

- query-sequence: "QVQLVESGGGLVQAGGSLRLSCAASGFTFQYSAMGWSRQAPGKERDVVAAIRSNGGSTYYADSVKGRFTISRDNAKNTVYLQMNSLKPEDTAVYYSAARAYKTYDWGQGTQVTVSS"
  polyreactivity (PSR sort gate): "high polyreactivity"
- query-sequence: "QVQLVESGGGLVQAGGSLRLSCDASGRIFRYYAMGWYRQAPGKERELVAAISSDGSTDYADSVKGRFTISRDNAKNTVYLQMNSLKPEDTAVYYCAASVVSYGHDYWGQGTQVTVSS"
  polyreactivity (PSR sort gate): "low polyreactivity"
- query-sequence: "QVQLVESGGGLVQAGGSLRLSCAASGRIFLVNAMGWYRQAPGKERELVAAINFISGSTYYADSVKGRFTISRDNAKNTVYLQMNSLKPEDTAVYYCAAYSYWSYVQRYKLEYDYWGQGTQVTVSS"
  polyreactivity (PSR sort gate): "low polyreactivity"
- query-sequence: "QVQLVESGGGLVQAGGSLRLSCAASGSIFSVYARGSYRQAPGKERELVAGITRGGSTYADSVKGRFTISRDNAKNPVYLQMNSLKPEDTAVYYCNAQTRIVKDRLRSDYWGQGTQVTVSS"
  polyreactivity (PSR sort gate): "high polyreactivity"
- query-sequence: "QVQLVESGGGLVQAGGSLRLSCSASGSIFPYYSMGWYRQAPGQERQLVAAISYSGGRTRYADSVKGRFTISRDNAKNTVYLQMNSLKPEDTAVYYCAVVDRHQPYGRQLDYWGQGTQVTVSS"
  polyreactivity (PSR sort gate): "low polyreactivity"
- query-sequence: "QVQLVESGGGLVQAGGSLRLSCAASGRIFGLYAMGWYTQAPGKERELVAAYADSVKGRFTISRDNAKNTVYLQMNSRKPVDTAVYYCAKGPLYAGSTIDLRDFNYWGQGTQVTVSS"
  polyreactivity (PSR sort gate): "low polyreactivity"
- query-sequence: "QVQLVESGGGLVQAGGSLRLSCAASGYIFDPNAMGWYRQAPGKERELVAAISGSGTSTYYADSVKGRFTISRDNAKNTVYLQMNSLKPEDTAVYYCAAAHDAGPVRYYYWGHGTQVTVSS"
  polyreactivity (PSR sort gate): "low polyreactivity"
- query-sequence: "QVQLVESGGGLVQAGGSLRLSCAASGSIFVTYGMGWYRQAPGKERELVARITTSGGSTYYADSVKGRFTISRDNAKNTVYLQMNSLKQEDTAVYYCNVRFAWGWTYWRYDYWGQGTQVTVSS"
  polyreactivity (PSR sort gate): "high polyreactivity"
- query-sequence: "QVQLVESGGGIVQAGGSLRLSCAASGSIFTGYAMGWYRQAPGKERQLVAAISWRGGGTYYADSVKGRFTISRDNAKNTVYLQMNSLKPEDTAVYYCAAVTKFGQYAPGSKGYGYWGQGTQVTVSS"
  polyreactivity (PSR sort gate): "low polyreactivity"
- query-sequence: "QVQLVESGGCLVQAGGSLRLSCDASGSTFLTNTMGWYRQPPGKERELVAAISSGDSTYYADSVKGRFTISRDNAKNTVYLQMNSLKPEVTAVYYCARDVGWRNVPRDYWGQGTQVTVSS"
  polyreactivity (PSR sort gate): "low polyreactivity"
- query-sequence: "QVQLVESGGGLVQGGGSLRLSCAASGSTFWANAMGWYRQATGKERELVAGITWNAGSTYYADSVKGRFTISRDNAKNPVYLQMNRLKPEDTAVFYCAASYHFQGWGPGYNSWGQGTQVTVSS"
  polyreactivity (PSR sort gate): "low polyreactivity"

---

# run-description: yeast display, Sf9 membrane polyspecificity reagent, FACS + sequencing; frameworks hold sequencing errors
property-name: polyreactivity (PSR sort gate)

- query-sequence: "QVQLGHSGGGLVQAGGSLRLTCAPSGSIFGYKAMGWYRQAPGKERELVAAISSTGGSTYYADSVKGRFTISRDNAKNTVYLQMNSLKPEDTAVYYCAKQVADRYVYWGQGTQVTVSS"
  observed: "low polyreactivity"
- query-sequence: "QVQLVESGGGLVQDGGSLRLSCAASGRIFGYYAMGGYRQAPGKERELVASINGGGSTNYADSVKGRFTISRDNAKTTVYLQMNSLKPEDTAVYDCAAAQWAYWLLYNYWGHGTQVTVSS"
  observed: "low polyreactivity"
